- test-target: human recombinant Btk (Homo sapiens (Human), UniProt Q06187)
- Sequence (Q06187 whole entry): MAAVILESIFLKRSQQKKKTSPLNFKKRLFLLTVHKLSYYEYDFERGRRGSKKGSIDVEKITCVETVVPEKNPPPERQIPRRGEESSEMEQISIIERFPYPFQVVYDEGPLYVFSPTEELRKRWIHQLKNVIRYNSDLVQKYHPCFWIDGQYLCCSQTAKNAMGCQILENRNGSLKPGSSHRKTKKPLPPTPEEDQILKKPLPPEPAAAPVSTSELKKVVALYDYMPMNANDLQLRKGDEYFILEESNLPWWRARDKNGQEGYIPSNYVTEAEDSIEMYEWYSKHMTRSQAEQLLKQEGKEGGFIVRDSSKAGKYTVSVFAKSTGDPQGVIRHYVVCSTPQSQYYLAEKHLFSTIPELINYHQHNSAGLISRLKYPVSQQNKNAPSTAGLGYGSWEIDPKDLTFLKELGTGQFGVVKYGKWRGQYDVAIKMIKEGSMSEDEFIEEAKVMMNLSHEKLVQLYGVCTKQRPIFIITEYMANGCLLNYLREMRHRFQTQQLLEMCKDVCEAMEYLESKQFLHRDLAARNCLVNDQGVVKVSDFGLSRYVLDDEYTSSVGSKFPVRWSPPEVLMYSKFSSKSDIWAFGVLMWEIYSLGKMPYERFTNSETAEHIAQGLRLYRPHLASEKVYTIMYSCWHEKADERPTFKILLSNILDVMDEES
- test-method-notes: Human Recombinant Btk Enzyme Assay (LLE_Btk)
- condition-parameters: human recombinant Btk 1 nM, ATP 20 μM, 60 min room temperature
- Procedure: Human Recombinant Btk Enzyme Assay After incubating at room temperature for 60 min, the reaction was terminated by adding 45 μl of 35 mM EDTA to each sample. The reaction mixture was analyzed on the Caliper LABCHIP® 3000 (Caliper, Hopkinton, Mass.) by electrophoretic separation of the fluorescent substrate and phosphorylated product. […] Compounds were dissolved at 10 mM in dimethylsulfoxide (DMSO) and evaluated at eleven concentrations.
metric-name: log10(IC50) (log10 of the value in nM)
Log10 applied to IC50; unit prior to transform: nM.

Nc1n[nH]c2c(-c3ccc(NC(=O)c4ccccc4)cc3)ncc(-c3ccc(Oc4ccccc4)cc3)c12 [Example 61] = 4.17

Kindly give each listed record's log10(IC50).
1. Nc1n[nH]c2cc(C3CCCN(C(=O)Nc4ccccc4)C3)nc(-c3ccc(Oc4ccccc4)cc3)c12 (stereo not drawn) [Example 236]
2. CN(C)C(=O)Cn1ccc(Nc2cc3[nH]nc(N)c3c(-c3ccc(Oc4ccccc4)cc3)n2)n1 [Example 249]
3. COc1ccc(-c2cnc(Nc3ccccc3C)c3[nH]nc(N)c23)cc1 [Example 132]
4. COC(=O)C(=O)N1CCCC(c2cc3[nH]nc(N)c3c(-c3ccc(Oc4ccccc4)cc3)n2)C1 (stereo not drawn) [Example 238]
5. CC(C)COc1cccc(-c2ncc(-c3ccc(Oc4ccccc4)cc3)c3c(N)n[nH]c23)c1 [Example 102]
6. Nc1n[nH]c2nc(-c3cccs3)nc(-c3ccc(Oc4ccccc4)cc3)c12 [Example 120]

[reply]
1. 0.48
2. 0.48
3. 2.41
4. 0.30
5. 4.15
6. 2.38

Kindly give each listed record's log10(IC50).
1. Nc1n[nH]c2cc(-c3ccc(-c4nnn[nH]4)cc3)nc(-c3ccc(Oc4ccccc4)cc3)c12 [Example 223]
2. Nc1n[nH]c2c(-c3ccccn3)cnc(-c3ccc(Oc4ccccc4)cc3)c12 [Example 225]

[reply]
0.30
0.00

====

- test-target: human recombinant Btk (Homo sapiens (Human), UniProt Q06187)
- test-method-notes: Human Recombinant Btk Enzyme Assay (LLE_Btk)
- condition-parameters: human recombinant Btk 1 nM, ATP 20 μM, 60 min room temperature
Would you kindly list pIC50 for each of these molecules?
Numbers only, as −log10 of the molar value.

Kindly give each listed record's pIC50.
1. Nc1n[nH]c2c(-c3cccc(OC(F)(F)F)c3)ncc(-c3ccc(Oc4ccccc4)cc3)c12
2. Nc1n[nH]c2cncc(-c3ccc(OC4CCCC4)cc3)c12
3. Cc1ccccc1Nc1ncc(-c2cccc(OC(C)C)c2)c2c(N)n[nH]c12
4. COc1cccc(-c2cnc(Nc3ccccc3)c3[nH]nc(N)c23)c1

[reply]
1. 4.86
2. 5.02
3. 6.62
4. 6.54

Kindly give each listed record's pIC50.
1. C=CC(=O)N1CCCC(c2cc3[nH]nc(N)c3c(-c3ccc(Oc4ccccc4)cc3)n2)C1 (centres unmarked)
2. Nc1n[nH]c2c(-c3cccc(C(F)(F)F)c3)ncc(-c3ccc(Oc4ccccc4)cc3)c12
3. Nc1n[nH]c2c(-c3ccc(Cl)c(Cl)c3)ncc(-c3ccc(Oc4ccccc4)cc3)c12
4. Cc1csc(NC(=O)NC2CCN(c3cc(-c4ccc(Oc5ccccc5)cc4)c4c(N)n[nH]c4n3)C2)n1 (centres unmarked)
5. Cc1cccc(Oc2ccc(-c3cc(C4CCCC4)nc4[nH]nc(N)c34)cc2)c1
6. COc1cccc(-c2cnc(Nc3ccccc3Cl)c3[nH]nc(N)c23)c1
7. Nc1n[nH]c2cc(C3CCN(C(=O)Nc4ccccc4)CC3)nc(-c3ccc(Oc4ccccc4)cc3)c12

[reply]
8.40
4.79
5.04
5.03
6.54
6.64
8.70
